Source: the supplement of paper PMC11451515

Give cell viability for every item shown.
Tested on: SEM cells
Experiment: cell viability relative to DMSO control; higher = less cytotoxic
Conditions: HPLM + 10% dialyzed FBS; 48 h; 46.1 µM

Qu. Note cell viability for the molecule shown: CC1COC2=C3N1\C=C(C(O)=O)/C(=O)C3=CC(=C2N4CCN(C)CC4)F (configuration not stated)
Ans. 119%

Qu. Note cell viability for the molecule shown: Nc1cc(c(cc1S(=O)(N)=O)S(N)(=O)=O)C(/Cl)=C(/Cl)Cl
Ans. 9.94%

Qu. Note cell viability for the molecule shown: COc1cccc2c1C(=O)c1c(O)c3c(c(O)c1C2=O)C[C@@](O)(C(C)=O)C[C@@H]3O[C@H]1C[C@H](N)[C@H](O)[C@H](C)O1
Ans. 5.34%

Qu. Note cell viability for the molecule shown: COc1cc(-c2nn(C3CCC(N4CCN(C(C)=O)CC4)CC3)c3ncnc(N)c23)ccc1NC(=O)c1cc2ccccc2n1C (configuration not stated)
Ans. 101%

Qu. Note cell viability for the molecule shown: C[N+](C)([O-])CCNc1ccc(NCC[N+](C)(C)[O-])c2c1C(=O)c1c(O)ccc(O)c1C2=O
Ans. 10.1%

Qu. Note cell viability for the molecule shown: Cc1ccc(C(=O)c2cc(O)c(O)c([N+](=O)[O-])c2)cc1
Ans. 95.6%

Qu. Note cell viability for the molecule shown: COC(=O)[C@@H](N)CCCNC(=N)N[N+](=O)[O-]
Ans. 95.2%

Qu. Note cell viability for the molecule shown: CC(=O)O[C@@]12CO[C@@H]1C[C@H](O)[C@]3(C)[C@@H]2[C@H](OC(=O)C4=CC=CC=C4)[C@]5(O)C[C@H](OC(=O)C(O)[C@@H](NC(=O)OC(C)(C)C)C6=CC=CC=C6)C(=C(/[C@@H](O)C3=O)C5(C)C)/C (some centres not stated)
Ans. 5.16%

Qu. Note cell viability for the molecule shown: COC(=O)/C=C/C(=O)OC
Ans. 43.3%

Qu. Note cell viability for the molecule shown: O=C1N\2CCC3=C([NH]C4=C3C=CC=C4)C2=N/C5=CC=CC=C15
Ans. 76.8%

Qu. Note cell viability for the molecule shown: OCCCNc1cc(-c2ccnc(Nc3cccc(Cl)c3)n2)ccn1
Ans. 3.56%

Qu. Note cell viability for the molecule shown: COc1cc2ncnc(Nc3cccc(Br)c3)c2cc1OC
Ans. 91.5%

Qu. Note cell viability for the molecule shown: Cc1c(C(=O)Nc2cccc(C(F)(F)F)c2)cc(-c2ccccc2)n1CCCN1CCOCC1
Ans. 62.8%

Qu. Note cell viability for the molecule shown: C[C@@H]1CC[C@@]2(OC1)OC1CC3C4CC=C5CC(O)CCC5(C)C4CCC3(C)C1[C@@H]2C (some centres not stated)
Ans. 73.6%

Qu. Note cell viability for the molecule shown: N[C@@H](CC(=O)N1CCn2c(nnc2C(F)(F)F)C1)Cc1cc(F)c(F)cc1F
Ans. 93.3%

Qu. Note cell viability for the molecule shown: O=C(NNC(=O)c1ccc(CN[S+](=O)([O-])c2ccc(F)c(Cl)c2)cc1)c1ccccc1
Ans. 87%

Qu. Note cell viability for the molecule shown: CNCC(O)C(O)C(O)C(O)CO.O=C(O)c1ccc(-c2cc3cccnc3c(-c3ccc4nonc4c3)n2)cc1
Ans. 92%

###

Give cell viability for every item shown.
Tested on: P12-Ichikawa
Test: cell viability relative to DMSO control; higher = less cytotoxic
Conditions: RPMI 5 mM glucose + 10% FBS; 48 h; 0.0632 µM
Number in %, nothing else.

Qu. Note cell viability for the molecule shown: C[N+](C)([O-])CCNc1ccc(NCC[N+](C)(C)[O-])c2c1C(=O)c1c(O)ccc(O)c1C2=O
Ans. 82.7

Qu. Note cell viability for the molecule shown: CC1(C)CC(O)CC(C)(C)N1[O]
Ans. 126

Qu. Note cell viability for the molecule shown: OCCCNc1cc(-c2ccnc(Nc3cccc(Cl)c3)n2)ccn1
Ans. 118

Qu. Note cell viability for the molecule shown: CCCCN(CCCC)C(=O)CN1C[C@H](c2ccc3c(c2)OCO3)[C@@H](C(=O)O)[C@@H]1c1ccc(OC)cc1
Ans. 112

Qu. Note cell viability for the molecule shown: COc1cc([C@@H]2c3cc4c(cc3[C@@H](O[C@@H]3O[C@@H]5CO[C@@H](c6cccs6)O[C@H]5[C@H](O)[C@H]3O)[C@H]3COC(=O)[C@H]23)OCO4)cc(OC)c1O
Ans. 83.3

Qu. Note cell viability for the molecule shown: NCC(=O)Nc1ccc(-n2nc(C(F)(F)F)cc2-c2ccc3c(ccc4ccccc43)c2)cc1
Ans. 125

Qu. Note cell viability for the molecule shown: COc1ccc(Nc2cc(-c3cnc(N)nc3)nc(N3CCOCC3)n2)cn1
Ans. 100

Qu. Note cell viability for the molecule shown: Cc1ncc([N+](=O)[O-])n1CCO
Ans. 112

Qu. Note cell viability for the molecule shown: CC(C)(C)NC(=O)[C@H]1CC[C@H]2[C@@H]3CC[C@H]4NC(=O)\C=C/[C@]4(C)[C@H]3CC[C@]12C
Ans. 109

Qu. Note cell viability for the molecule shown: CC(=O)O[C@@]12CO[C@@H]1C[C@H](O)[C@]3(C)[C@@H]2[C@H](OC(=O)C4=CC=CC=C4)[C@]5(O)C[C@H](OC(=O)C(O)[C@@H](NC(=O)OC(C)(C)C)C6=CC=CC=C6)C(=C(/[C@@H](O)C3=O)C5(C)C)/C (some centres not stated)
Ans. 37.2

Qu. Note cell viability for the molecule shown: O=c1[nH]cnc2c1ncn2[C@H]1CC[C@@H](CO)O1
Ans. 96.1

Qu. Note cell viability for the molecule shown: O=C(CCCCCCC(=O)Nc1ccccc1)NO
Ans. 110

Qu. Note cell viability for the molecule shown: COC1=CC=C(C=C1)C2CC(=N/N2C3=CC=C(C=C3)[S+](N)([O-])=O)\C4=CC=CC=C4 (configuration not stated)
Ans. 106

Qu. Note cell viability for the molecule shown: COc1cc(OC)c(NC(=O)Nc2cc(C)on2)cc1Cl
Ans. 108

Qu. Note cell viability for the molecule shown: Nc1nc(OCc2ccccc2)c2nc[nH]c2n1
Ans. 124

Qu. Note cell viability for the molecule shown: COc1ccc2c(c1OC)CN1CCc3cc4c(cc3C1C2)OCO4 (configuration not stated)
Ans. 94

Qu. Note cell viability for the molecule shown: CO[C@@H]1C(N(C)C(=O)c2ccccc2)C[C@H]2O[C@]1(C)n1c3ccccc3c3c4c(c5c6ccccc6n2c5c31)C(=O)NC4=O (some centres not stated)
Ans. 97.4
